Experiment: Selectivity index, ratio of IC50 for cytotoxicity against human PNT2 cells to IC50 for cytotoxicity against human PC-3 cells
Type: toxicity, cell-based
Conditions: PNT2 cells versus PC-3 cells, read-out: Ratio IC50
Friendly reminder: selectivity ratio below 30 is Y, at or above is N.

{"STRUCTURE": "O=S(=O)(c1ccccc1)c1c(OCCCCCCO)no[n+]1[O-]", "ASSIGNED_LABEL": "Y"}
{"STRUCTURE": "COc1cc(/C=C/C(=O)N2CCC=CC2=O)cc(OC)c1OCCCCCCCCCCCCOc1no[n+]([O-])c1S(=O)(=O)c1ccccc1", "ASSIGNED_LABEL": "N"}
{"STRUCTURE": "O=S(=O)(c1ccccc1)c1c(OCCCCCCCCCCCCO)no[n+]1[O-]", "ASSIGNED_LABEL": "N"}
{"STRUCTURE": "COc1cc(/C=C/C(=O)N2CCC=CC2=O)cc(OC)c1OCCCCCCOc1no[n+]([O-])c1S(=O)(=O)c1ccccc1", "ASSIGNED_LABEL": "Y"}
{"STRUCTURE": "COc1cc(/C=C/C(=O)N2CCC=CC2=O)cc(OC)c1OCCCOc1no[n+]([O-])c1S(=O)(=O)c1ccccc1", "ASSIGNED_LABEL": "N"}
{"STRUCTURE": "O=S(=O)(c1ccccc1)c1c(OCCCO)no[n+]1[O-]", "ASSIGNED_LABEL": "Y"}
{"STRUCTURE": "COc1cc(/C=C/C(=O)N2CCC=CC2=O)cc(OC)c1OC", "ASSIGNED_LABEL": "Y"}

###

In this section, each of the compounds is paired with its reported IC50 at 48 h.
Assay: Cytotoxicity against human PNT2 cells assessed as reduction in cell viability measured after 48 hrs by CCK-8 assay
Type: toxicity, cell-based

{"STRUCTURE": "COc1cc(/C=C/C(=O)N2CCC=CC2=O)cc(OC)c1OC", "IC50 at 48 h / µM": 8.5}
{"STRUCTURE": "COc1cc(/C=C/C(=O)N2CCC=CC2=O)cc(OC)c1OCCCOc1no[n+]([O-])c1S(=O)(=O)c1ccccc1", "IC50 at 48 h / µM": 17.8}
{"STRUCTURE": "O=S(=O)(c1ccccc1)c1c(OCCCO)no[n+]1[O-]", "IC50 at 48 h / µM": 1.9}
{"STRUCTURE": "O=S(=O)(c1ccccc1)c1c(OCCCCCCO)no[n+]1[O-]", "IC50 at 48 h / µM": 12.9}
{"STRUCTURE": "COc1cc(/C=C/C(=O)N2CCC=CC2=O)cc(OC)c1OCCCCCCCCCCCCOc1no[n+]([O-])c1S(=O)(=O)c1ccccc1", "IC50 at 48 h / µM": 14.1}
{"STRUCTURE": "O=S(=O)(c1ccccc1)c1c(OCCCCCCCCCCCCO)no[n+]1[O-]", "IC50 at 48 h / µM": 17.6}
{"STRUCTURE": "COc1cc(/C=C/C(=O)N2CCC=CC2=O)cc(OC)c1OCCCCCCOc1no[n+]([O-])c1S(=O)(=O)c1ccccc1", "IC50 at 48 h / µM": 3.3}

Values compiled from ChEMBL document CHEMBL6134784.
